ASSAY_METHOD_TEXT: Cytotoxicity against human HepG2 cells measured after 48 hrs by MTT assay
Assay type: toxicity, cell-based
ASSAY_ENDPOINT: IC50 at 48 h

INSERT INTO measurements (cpd_smiles, readout_value) VALUES
  ('Cc1c(CN2CC[Si](C)(C)CC2)nn(-c2ccc(Cl)cc2Cl)c1-c1ccc(Cl)cc1', '51.9 µM'),
  ('Cc1c(CN2CCN(C)CC2)nn(-c2ccc(Cl)cc2Cl)c1-c1ccc(Cl)cc1', '85 µM'),
  ('Cc1c(CN(C)C)nn(-c2ccc(Cl)cc2Cl)c1-c1ccc(Cl)cc1', '36.3 µM'),
  ('C[Si]1(C)CCN(NCc2cc(-c3ccc(Cl)cc3)n(-c3ccc(Cl)cc3)n2)CC1', '86.8 µM'),
  ('Cc1c(CNCc2ccccc2)nn(-c2ccc(Cl)cc2Cl)c1-c1ccc(Cl)cc1', '57.4 µM');

====

ASSAY_METHOD_TEXT: Solubility of the compound at pH 7.4 by HPLC method
Format: physicochemical
STATED_CONDITIONS: buffer
log10(solubility): recorded values
ASSAY_ENDPOINT: log10(solubility) (log10 of the value in µM)

INSERT INTO assay_data (cpd_smiles, readout_value) VALUES
  ('C[Si]1(C)CCN(C(=O)c2cc(-c3ccc(Cl)cc3)n(-c3ccc(Cl)cc3)n2)CC1', -1.30),
  ('C[Si]1(C)CCN(Cc2cc(-c3ccc(Cl)cc3)n(-c3ccc(Cl)cc3)n2)CC1', 0.57),
  ('C[Si]1(C)CCN(Cc2nn(-c3ccc(Cl)cc3Cl)c(-c3ccc(Cl)cc3)c2CO)CC1', 0.73),
  ('C[Si]1(C)CCN(NCc2cc(-c3ccc(Cl)cc3)n(-c3ccc(Cl)cc3)n2)CC1', 1.60),
  ('Cc1c(CN2CC[Si](C)(C)CC2)nn(-c2ccc(Cl)cc2Cl)c1-c1ccc(Cl)cc1', 0.02),
  ('Clc1ccc(-c2cc(CN3CCCCC3)nn2-c2ccc(Cl)cc2)cc1', 1.06);

====

ASSAY_METHOD_TEXT: Solubility of the compound at pH 4.5 by HPLC method
Format: physicochemical
STATED_CONDITIONS: buffer
solubility: recorded values
ASSAY_ENDPOINT: solubility (µM)

INSERT INTO results (cpd_smiles, readout_value) VALUES
  ('C[Si]1(C)CCN(Cc2nn(-c3ccc(Cl)cc3Cl)c(-c3ccc(Cl)cc3)c2CO)CC1', 41.6),
  ('Cc1c(CN2CC[Si](C)(C)CC2)nn(-c2ccc(Cl)cc2Cl)c1-c1ccc(Cl)cc1', 34.2),
  ('C[Si]1(C)CCN(C(=O)c2cc(-c3ccc(Cl)cc3)n(-c3ccc(Cl)cc3)n2)CC1', 0.13),
  ('C[Si]1(C)CCN(NCc2cc(-c3ccc(Cl)cc3)n(-c3ccc(Cl)cc3)n2)CC1', 44.3),
  ('C[Si]1(C)CCN(Cc2cc(-c3ccc(Cl)cc3)n(-c3ccc(Cl)cc3)n2)CC1', 41.9),
  ('Clc1ccc(-c2cc(CN3CCCCC3)nn2-c2ccc(Cl)cc2)cc1', 43.6);

====

ASSAY_METHOD_TEXT: Selectivity index, ratio of IC50 for human HepG2 cells to MIC for Mycobacterium tuberculosis H37Rv
Type: toxicity, cell-based
STATED_CONDITIONS: read-out: Ratio IC50
selectivity ratio: recorded values
ASSAY_ENDPOINT: selectivity ratio

INSERT INTO results (cpd_smiles, readout_value) VALUES
  ('Cc1c(CN2CCN(C)CC2)cc(-c2ccc(Cl)cc2)n1-c1ccc(Cl)cc1', 44.4),
  ('Cc1c(CN2CCN(C)CC2)nn(-c2ccc(Cl)cc2Cl)c1-c1ccc(Cl)cc1', 3.1),
  ('C[Si]1(C)CCN(C(=O)c2cc(-c3ccc(Cl)cc3)n(-c3ccc(Cl)cc3)n2)CC1', 4.18),
  ('Cc1c(CN2CCCCC2)nn(-c2ccc(Cl)cc2Cl)c1-c1ccc(Cl)cc1', '> 3.5'),
  ('Cc1c(CN2CC[Si](C)(C)CC2)nn(-c2ccc(Cl)cc2Cl)c1-c1ccc(Cl)cc1', 30.5),
  ('Cc1c(CN(C)C)nn(-c2ccc(Cl)cc2Cl)c1-c1ccc(Cl)cc1', 2.3),
  ('C[Si]1(C)CCN(NCc2cc(-c3ccc(Cl)cc3)n(-c3ccc(Cl)cc3)n2)CC1', 99.8),
  ('C[Si]1(C)CCN(Cc2nn(-c3ccc(Cl)cc3Cl)c(-c3ccc(Cl)cc3)c2CO)CC1', 2.41),
  ('Cc1c(CNCc2ccccc2)nn(-c2ccc(Cl)cc2Cl)c1-c1ccc(Cl)cc1', 4.2),
  ('C[Si]1(C)CCN(Cc2cc(-c3ccc(Cl)cc3)n(-c3ccc(Cl)cc3)n2)CC1', 306);
